Biological target: urease (Canavalia ensiformis)
Sequence (P07374 whole entry, looked up): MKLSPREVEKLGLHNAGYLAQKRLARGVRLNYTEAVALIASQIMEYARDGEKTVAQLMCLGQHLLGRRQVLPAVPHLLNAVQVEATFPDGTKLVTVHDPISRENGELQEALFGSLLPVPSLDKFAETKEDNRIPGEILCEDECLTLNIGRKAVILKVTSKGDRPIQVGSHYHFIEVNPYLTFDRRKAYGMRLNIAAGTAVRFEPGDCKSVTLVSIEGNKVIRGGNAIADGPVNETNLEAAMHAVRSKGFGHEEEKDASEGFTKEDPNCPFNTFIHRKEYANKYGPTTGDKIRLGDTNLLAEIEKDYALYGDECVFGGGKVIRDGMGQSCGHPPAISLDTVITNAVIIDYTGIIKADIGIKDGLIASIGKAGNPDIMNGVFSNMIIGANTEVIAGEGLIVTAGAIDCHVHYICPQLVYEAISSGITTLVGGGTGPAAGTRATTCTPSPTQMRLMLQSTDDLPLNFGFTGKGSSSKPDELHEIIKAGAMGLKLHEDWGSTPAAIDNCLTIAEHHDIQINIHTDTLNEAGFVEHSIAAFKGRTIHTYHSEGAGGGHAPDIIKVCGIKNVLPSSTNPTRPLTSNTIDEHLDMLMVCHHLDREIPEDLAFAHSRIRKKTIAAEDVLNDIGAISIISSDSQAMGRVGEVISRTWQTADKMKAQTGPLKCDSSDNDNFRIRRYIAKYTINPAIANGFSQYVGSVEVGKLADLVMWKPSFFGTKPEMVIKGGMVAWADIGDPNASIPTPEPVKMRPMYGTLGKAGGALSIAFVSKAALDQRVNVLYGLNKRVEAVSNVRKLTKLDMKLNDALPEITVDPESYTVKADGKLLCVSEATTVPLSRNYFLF
Type: biochemical, sword bean
Conditions: solid sample, 40° C., 80% RH, after 30 days, Stabilizer:Enzyme = 1:1
// Enzyme activity retention rate(%) (after 30 days) Stabilizer: Enzyme = 1:1 lookup, one value per entry
// return numeric value only (unit: %, not printed)

The examples below pair each entry with its known result.
molecule	unit.annotation	readout.number
NC(CO)(CO)CO [Working example 28]	%	65
NC(CO)(CO)CO [Working example 48]	%	48

Now look at this one.
What value of Enzyme activity retention rate(%) (after 30 days) Stabilizer: Enzyme = 1:1 has been recorded for this entry: NC(CO)(CO)CO [Working example 36]
41
